Can you tell me kon for the items I'm about to list?
Molecular target: T1, Human LRP6-Fc (R&D Systems), recombinant human LRP6 containing the complete extracellular domain (human, UniProt O75581 20-1370)
T1 construct: Bought protein; also called hLRP6; Fc-antigen; not shown: Fc part of the bought fusion protein
T1 sequence: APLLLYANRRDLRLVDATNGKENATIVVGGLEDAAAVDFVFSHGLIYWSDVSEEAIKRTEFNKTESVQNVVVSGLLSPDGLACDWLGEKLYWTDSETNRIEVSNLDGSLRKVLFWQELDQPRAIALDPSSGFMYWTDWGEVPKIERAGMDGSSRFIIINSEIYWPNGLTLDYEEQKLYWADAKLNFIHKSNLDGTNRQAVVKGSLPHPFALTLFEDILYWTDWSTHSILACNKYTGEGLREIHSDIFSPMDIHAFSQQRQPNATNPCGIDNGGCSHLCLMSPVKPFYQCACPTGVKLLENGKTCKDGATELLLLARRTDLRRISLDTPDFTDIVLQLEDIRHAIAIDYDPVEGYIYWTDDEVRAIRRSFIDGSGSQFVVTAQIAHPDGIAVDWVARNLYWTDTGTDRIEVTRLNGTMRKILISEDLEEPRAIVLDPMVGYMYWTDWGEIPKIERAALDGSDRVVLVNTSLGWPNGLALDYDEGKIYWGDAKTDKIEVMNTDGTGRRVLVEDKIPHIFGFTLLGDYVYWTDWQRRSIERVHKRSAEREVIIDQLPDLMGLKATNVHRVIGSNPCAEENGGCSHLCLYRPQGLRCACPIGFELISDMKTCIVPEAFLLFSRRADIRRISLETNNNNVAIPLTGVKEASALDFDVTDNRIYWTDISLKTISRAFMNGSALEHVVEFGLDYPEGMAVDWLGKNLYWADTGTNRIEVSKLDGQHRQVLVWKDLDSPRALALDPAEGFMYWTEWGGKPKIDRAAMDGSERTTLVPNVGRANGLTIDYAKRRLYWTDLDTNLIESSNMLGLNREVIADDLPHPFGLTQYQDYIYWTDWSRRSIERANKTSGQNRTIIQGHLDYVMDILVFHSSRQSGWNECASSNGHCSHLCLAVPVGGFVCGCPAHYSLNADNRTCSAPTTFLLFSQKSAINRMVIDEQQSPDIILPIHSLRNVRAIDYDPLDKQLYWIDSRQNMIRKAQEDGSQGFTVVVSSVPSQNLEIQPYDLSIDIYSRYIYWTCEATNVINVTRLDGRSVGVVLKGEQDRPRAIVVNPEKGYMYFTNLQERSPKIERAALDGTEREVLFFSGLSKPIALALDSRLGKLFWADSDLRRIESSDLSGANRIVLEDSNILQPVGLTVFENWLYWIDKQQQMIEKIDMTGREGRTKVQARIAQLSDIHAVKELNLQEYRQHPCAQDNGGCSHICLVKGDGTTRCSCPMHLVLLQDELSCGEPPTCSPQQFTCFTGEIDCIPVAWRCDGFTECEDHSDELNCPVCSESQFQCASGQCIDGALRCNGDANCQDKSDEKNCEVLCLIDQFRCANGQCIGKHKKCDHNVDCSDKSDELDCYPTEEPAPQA
Assay: SPR (BIAcore), mAb captured on anti-mouse chip, Fc-antigen injected, 1:1 model
Experimental: Kinetic rate constants (kₐ and kd) were determined using surface plasmon resonance, and affinities (KD) were then calculated from the rate constants (kd/kₐ). Surface plasmon resonance was carried out on a BIAcore system (Biacore International AB, Uppsala, Sweden). Each murine anti-LRP6 mAb sample was diluted 100 fold and captured onto an anti-mouse sensor chip surface. […] The association and dissociation phases were monitored for 8 and 60 minutes, respectively. […]

Answer with the recorded kon for the binder listed here: anti-LRP6 monoclonal antibody 1433.8 (antibody, V domains shown, Murine hybridoma mAb, protein G purified; also called VH21/VL21) VH: QVQLQQSGAELAKPGASVKMSCKASGYTFTSYWMHWVKQRPGQGLEWIGYINPSTGYTEYNQKFRDKATLTADKSSSTANMQLSSLTSEDSAVYYCTRTAQYYGSPRGYYAMDSWGQGTSVTVSS VL: MTQAAFSNPVTLGTSASISCRSSKSLLHSNGITYLCWFLQKPGQSPQLLIYLMSNLASGVPDRFSSSGSGTDFTLRISRVEAEDVGVYFCAQNLDLPWTFGGGTKLEI
45600 M⁻¹ s⁻¹

Answer with the recorded kon for the binder listed here: anti-LRP6 monoclonal antibody 77.2 (antibody, V domains shown, Murine hybridoma mAb, protein G purified; also called mAb 77.2; VH1/VL1) VH: QVQLQQSGAELAKPGASVKMSCKASGYTFTSYWMHWVKQRPGQGLEWIGYINPSTGYTEYNQNFRDKATLTADKSSSTANMQLSSLTSEDSAVYYCARTAQYYGSPRGYYAMDSWGQGTSVTVSS VL: DIVMTQAAFSNPVTLGTSASISCRSSKSLLHSNGITYLCWFLQKPGQSPQLLIYLMSNLASGVPDRFSSSGSGTDFTLRISRVEAEDVGVYFCAQNLDLPWTFGGGTKLEI
63200 M⁻¹ s⁻¹

Answer with the recorded kon for the binder listed here: anti-LRP6 monoclonal antibody 1115.3 (antibody, V domains shown, Murine hybridoma mAb, protein G purified; also called VH16/VL16) VH: DVKLVESGGGLVKLGGSLRLSCAASGFSFSTSYMSWVRQTPEKRLELVAAINLNGGSTYYSDTVKGRFTISRDNAKNTLYLQMSSLKSEDTAFYYCASELAGYGTPFAYWGQGTLVTVSA VL: DIVLTQSPATLSVTPGDSVSLSCKASQSISNNLHWYQQKSHESPRLLIKYTSQSISGIPSRFSGSGSGTDFTLTINNVETEDFGMYFCQQSNSWPLTFGAGTKLEV
36800 M⁻¹ s⁻¹
